test system: C. trachomatis; experiment: In vitro susceptibility testing of C. trachomatis in cell culture using HEp-2 cells (MIC/MBC); format: cell-based, Chlamydia trachomatis; conditions: 10 strains
Field: MBC Range. Provide a value for each of the compounds that follow.

# annotated cases, reported MBC Range shown
- COMPOUND_SMILES: "CC(=O)O[C@H]1C[C@@]2(C)[C@@H](C[C@@H](O)[C@H]3[C@@]4(C)CC[C@@H](O)[C@@H](C)[C@@H]4CC[C@@]32C)/C1=C(\\CCC=C(C)C)C(=O)O"
  MBC Range: "0.12 to 0.5 µg/mL"
- COMPOUND_SMILES: "C[C@H]1c2cccc(O)c2C(=O)C2=C(O)[C@]3(O)C(=O)C(C(N)=O)=C(O)[C@@H](N(C)C)[C@@H]3[C@@H](O)[C@@H]21"
  MBC Range: "0.015 to 0.06 µg/mL"
- COMPOUND_SMILES: "CC[C@H]1OC(=O)[C@H](C)C(=O)[C@H](C)[C@@H](O[C@@H]2O[C@H](C)C[C@H](N(C)C)[C@H]2O)[C@](C)(OC)C[C@@H](C)C(=O)[C@H](C)[C@H]2N(CCCCn3cnc(-c4cccnc4)c3)C(=O)O[C@]12C"
  MBC Range: "0.015 to 0.25 µg/mL"

Now look at this one.
Form: Entry = `CC[C@H]1OC(=O)[C@H](C)[C@@H](O[C@H]2C[C@@](C)(OC)[C@@H](O)[C@H](C)O2)[C@H](C)[C@@H](O[C@@H]2O[C@H](C)C[C@H](N(C)C)[C@H]2O)[C@](C)(OC)C[C@@H](C)C(=O)[C@H](C)[C@@H](O)[C@]1(C)O` | System = C. trachomatis | MBC Range = ____
0.015 to 0.12 µg/mL

---

system: C. trachomatis; test: In vitro susceptibility testing of C. trachomatis in cell culture using HEp-2 cells (MIC/MBC); format: cell-based, Chlamydia trachomatis; settings: 10 strains
MEASURED_PROPERTY: MBC Range

Given the molecule `CC[C@H]1OC(=O)[C@H](C)[C@@H](O[C@H]2C[C@@](C)(OC)[C@@H](O)[C@H](C)O2)[C@H](C)[C@@H](O[C@@H]2O[C@H](C)C[C@H](N(C)C)[C@H]2O)[C@](C)(O)C[C@@H](C)CN(C)[C@H](C)[C@@H](O)[C@]1(C)O` , what is its reported MBC Range?
0.015 to 0.12 µg/mL
